cytotoxicity at 70.5 h by entry:
- Assay comment: Human HepG2 cell viability assay in 384 well format
- Type: toxicity, cell-based
- Set-up: dose 125 nL, time 70.5 hour; concentration not given beside the values
- Condition notes: HepG2 cells, read-out: Inhibition
Give me the value, and tack the unit on after it.

Observe how each entry below is paired with its result.
Compound	cytotoxicity at 70.5 h
CCN1CCn2c(C)cnc2C12CCN(C(=O)Cc1ccccc1)CC2	24.6%
CN(C)c1nc2c(c(NCc3cc(O)ncn3)n1)CCCC2	-4.94%
CNC(=O)C1CCCN(c2nc3c(-c4ccccc4)csc3c(=O)[nH]2)C1 (centres undefined)	4.92%
Cc1occc1C(=O)N1CCCC(c2nncn2C)C1 (centres undefined)	-6.07%
Cc1nnsc1CNC(=O)CSCc1ccccc1Cl	-7.02%
CCN1CCN(S(=O)(=O)c2cc(C)c(Cl)cc2C)CC1	2.46%

Task: I'd like to know its cytotoxicity at 70.5 h. The compound in question is Cc1nnc(NCCc2coc(-c3ccccc3)n2)c(C#N)c1C
Output: -2.75%
